- Test system: rodent lifetime carcinogenesis bioassay, tumor incidence TD50
- method_description: carcinogenic potency in animals, long-term in vivo studies, CPDB compilation (AID 1745844)
- measurement_context: monkey; strain Cynomolgus [Macaca fascicularis]; both sexes; in feed; site: any site (literature study); lesion: malignant tumor; dosed 928 weeks; study length 1135 weeks
property_name: TD50 (mg/kg/day)

{"columns": ["chemical_structure", "readout_value"],
 "data": [
  ["CN(N=O)C(N)=O", 4]
]}

* * *

- System: rodent lifetime carcinogenesis bioassay, tumor incidence TD50
- method_description: carcinogenic potency in animals, long-term in vivo studies, CPDB compilation (AID 1745844)
- measurement_context: rat; strain Fischer 344; males; in drinking water; site: subcutaneous tissue; lesion: fibroma + sarcoma; dosed 97 weeks; study length 97 weeks

{"columns": ["chemical_structure", "readout_unit", "TD50"],
 "data": [
  ["COc1cc(-c2ccc(N=Nc3c(S(=O)(=O)O)cc4cc(S(=O)(=O)O)cc(N)c4c3O)c(OC)c2)ccc1N=Nc1c(S(=O)(=O)O)cc2cc(S(=O)(=O)O)cc(N)c2c1O", "mg/kg/day", 131]
]}

* * *

- Tested on: rodent lifetime carcinogenesis bioassay, tumor incidence TD50
- method_description: carcinogenic potency in animals, long-term in vivo studies, CPDB compilation (AID 1745844)
- measurement_context: rat; strain F344/DuCrj; females; in feed; site: colon; lesion: adenoma; dosed 104 weeks; study length 104 weeks

{"columns": ["chemical_structure", "experimental_system", "TD50"],
 "data": [
  ["Nc1ccc2nc3ccccn3c2n1", "rodent lifetime carcinogenesis bioassay, tumor incidence TD50", "111 mg/kg/day"]
]}

* * *

- Tested on: rodent lifetime carcinogenesis bioassay, tumor incidence TD50
- method_description: carcinogenic potency in animals, long-term in vivo studies, CPDB compilation (AID 1745844)
- measurement_context: rat; strain Buffalo; females; in feed; site: mammary gland; lesion: adenocarcinoma; dosed 43 weeks; study length 92 weeks

{"columns": ["chemical_structure", "experimental_system", "TD50"],
 "data": [
  ["CC(=O)Nc1ccc(S(=O)(=O)c2ccc(NC(C)=O)cc2)cc1", "rodent lifetime carcinogenesis bioassay, tumor incidence TD50", "55.6 mg/kg/day"]
]}

* * *

- System: rodent lifetime carcinogenesis bioassay, tumor incidence TD50
- method_description: carcinogenic potency in animals, long-term in vivo studies, CPDB compilation (AID 1745844)
- measurement_context: rat; strain Fischer 344; males; by gavage; site: kidney; lesion: tubule carcinoma; dosed 101 weeks; study length 104 weeks

{"columns": ["chemical_structure", "TD50 / mg/kg/day"],
 "data": [
  ["O=c1ccc2ccccc2o1", 151]
]}

* * *

- Tested on: rodent lifetime carcinogenesis bioassay, tumor incidence TD50
- method_description: carcinogenic potency in animals, long-term in vivo studies, CPDB compilation (AID 1745844)
- measurement_context: mouse; strain B6C3F1; males; i.p.; site: lung; lesion: alveolar/bronchiolar adenoma + alveolar/bronchiolar carcinoma; dosed 51 weeks; study length 83 weeks
property_name: TD50

{"columns": ["compound", "experimental_system", "property_name", "readout_value"],
 "data": [
  ["CC(COc1ccccc1)N(CCCl)Cc1ccccc1 (stereo unspecified)", "rodent lifetime carcinogenesis bioassay, tumor incidence TD50", "TD50", "63 mg/kg/day"]
]}

* * *

- Tested on: rodent lifetime carcinogenesis bioassay, tumor incidence TD50
- method_description: carcinogenic potency in animals, long-term in vivo studies, CPDB compilation (AID 1745844)
- measurement_context: rat; strain Fischer 344; females; in feed; site: spleen; lesion: angiosarcoma + osteosarcoma + sarcoma, NOS; dosed 104 weeks; study length 104 weeks
property_name: TD50

{"columns": ["chemical_structure", "property_name", "readout_value"],
 "data": [
  ["Cc1ccccc1N", "TD50", "337 mg/kg/day"]
]}
